- TEST PROTOCOL: gradient 5% acetonitrile 3 min, to 50% in 2 min, to 85% in 15 min, held 3 min, 100 µL/min
- CONDITION LABEL: column: Zorbax Extend-C18 2.1 x 50 mm; eluents: water / acetonitrile, 0.1% formic acid
MEASURED PROPERTY: RP-LC retention time (s)
One number for each entry, in s.

The cases that follow already have their RP-LC retention time on record.
CCc1noc(NC(C)=O)c1-c1ccc(C)c(S(=O)(=O)Nc2ccccc2C)c1 = 836
Cc1ccc(-c2cc3c(=O)n(Cc4noc(CN5CCC(C)CC5)n4)ccn3n2)c(C)c1 = 742
O=C(c1cccc(Cl)c1)N1CCN(S(=O)(=O)c2cc3c4c(c2)CCC(=O)N4CCC3)CC1 = 843
CCCN(C)C(=O)C1CCCCc2nnc(C(C)C)n21 (centres undefined) = 622
Cc1nn(-c2ccccc2)c2ccn(CC(=O)N3CCN(c4ccc(Cl)cc4)CC3)c(=O)c12 = 948

Hello, I would appreciate it if you could give RP-LC retention time for each entry below.
1. O=C(NCc1cccc(Cl)c1)C1CCCN(c2nc3ccsc3c(=O)n2Cc2ccccc2)C1 (centres undefined)
2. COc1cc(CNC(=O)CCc2c(-c3ccc(F)cc3)nc3ccccn23)cc(OC)c1OC
3. O=C1CCSc2c1cccc2C(=O)N1CCOCC1
4. O=C(Nc1ccccc1)C1(CCO)CCN(Cc2ccccc2)C1 (centres undefined)

1: 988; 2: 632; 3: 601; 4: 624

###

- TEST PROTOCOL: gradient 5% acetonitrile 3 min, to 50% in 2 min, to 85% in 15 min, held 3 min, 100 µL/min
- CONDITION LABEL: column: Zorbax Extend-C18 2.1 x 50 mm; eluents: water / acetonitrile, 0.1% formic acid
MEASURED PROPERTY: RP-LC retention time (s)
Give bare numbers, in s.

COc1ccc(NC(=O)CN2C(=O)c3ccccc3C2=O)c2ccccc12 = 782
Cc1oc2c(c1C(=O)Nc1ccc(C(F)(F)F)cc1)C1=NC(C)(C)CN1C=N2 = 728
CCOc1ccc(C(=O)N2CCc3c(c(-c4nc(C5CC5)no4)nn3C)C2)cc1 = 837
O=C(NC1CCCC1)N1CCC(OC2CCN(Cc3ccccc3)CC2)CC1 = 634
CCCN1CCN(c2cc(C(=O)O)c3cc(NC(=O)c4ccccc4F)ccc3n2)CC1 = 601
COc1ccccc1N1CCN(c2ncc(S(=O)(=O)c3ccc(C)cc3)c(N)n2)CC1 = 955
O=C(CN1C(=O)CSc2cccn2-c2ccccc21)NCCC1=CCCCC1 = 1030
Cc1ccc(CN2CCN(CC(C)C(=O)NCc3cc(F)ccc3F)C(=O)C2=O)cc1 (centres undefined) = 765

Give measured RP-LC retention time for every item shown.
1. Cc1cccc(N2C(=O)CN(S(C)(=O)=O)CC2(C)C(=O)NC2CCCCCCC2)c1C (centres undefined)
2. Cn1cc(S(=O)(=O)NCc2cccs2)c(=O)n(C)c1=O

1: 951; 2: 635

###

Kindly supply the reported RP-LC retention time values for the records listed here.
- TEST PROTOCOL: gradient 5% acetonitrile 3 min, to 50% in 2 min, to 85% in 15 min, held 3 min, 100 µL/min
- CONDITION LABEL: column: Zorbax Extend-C18 2.1 x 50 mm; eluents: water / acetonitrile, 0.1% formic acid
One number for each entry, in s.

COc1ccc2[nH]c(=O)c(CCC(=O)NCCN3CCCCCC3)cc2c1 = 600
COc1ccc(OC)c(NC(=O)Cn2cccc2-c2nnc(C3CC3)o2)c1 = 704
O=C(Nc1ccc2cn[nH]c2c1)C1CN(c2nc3ccccc3s2)C1 = 630
Cc1cc2[nH]c(C(=O)Nc3ccc(F)cc3Cl)c(CN3CCOCC3)c2s1 = 721
Cc1ccc(C)c(S(=O)(=O)N2CC=C(c3cn(C)c4ncccc34)CC2)c1 = 1070

Give RP-LC retention time for all molecules that follow.
1. O=C(Cn1cccc1-c1nnc(C2CC2)o1)NCc1cccc(Br)c1
2. O=C1CCCc2cc(S(=O)(=O)N3CCC(C(=O)NCc4ccc5c(c4)OCO5)CC3)ccc2N1
3. O=C(Nc1nc2c(F)cc(F)cc2s1)C1CCCN(S(=O)(=O)c2cccs2)C1 (centres undefined)
4. COc1ccc(-c2nnc(-c3ccc(Cl)c(S(=O)(=O)N4CCCCC4)c3)o2)cc1

869
706
767
1100

Values compiled from the METLIN SMRT retention time set (Domingo-Almenara et al. 2019).
